Assay: antimalarial activity against Dd2 strain (AID 2302);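 note: 0% = DMSO untreated growth and 100% = chloroquine plus artemisinin killed control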
Details: P. falciparum Dd2 in RBCs, LDH growth readout, 72 h; at 2 µM; stronger effect = higher value
Each entry gets 0 if its growth inhibition stays under 30%, and 1 if its growth inhibition is 30% or above.

Compound	Label value
COc1ccc2nccc(N3CCC(CCNCc4ccc5c(n4)NC(=O)CS5)CC3)c2c1	1
COc1ccccc1C1CCN(C2CCC(NC(=O)c3cc4cc(C(C)C)ccc4[nH]3)CC2)CC1 (stereo not given)	1
COc1ccc2nccc(NN=CC=Cc3ccccc3)c2c1	1
COc1ccc2nccc([C@@H](O)CN3CC[C@H](NCc4nc5c(cc4Cl)OCC(=O)N5)[C@H](F)C3)c2c1	0
COc1cc2nc(N3CCC(CNC(=O)c4ccc(-c5ccc(C(=O)N(C)C)cc5OCCO)cc4)CC3)nc(N)c2cc1OC	0
